experiment summary: Neurotoxicity in ip dosed albino Wistar rat at 4 hrs by rotorod test
Assay type: toxicity, organism-based
test parameters: in vivo
Reported MTD at 4 h values for a set of compounds
Respond numerically; units are mg/kg and should not be typed.

Solved cases (5 shown):
CCCCN1C(=O)CC(c2noc3ccccc23)C1=O (stereo unspecified); 100
O=C1CC(c2noc3ccccc23)C(=O)N1c1ccccc1 (stereo unspecified); 300
O=C1CC(c2noc3ccccc23)C(=O)N1c1ccc(F)cc1 (stereo unspecified); 300
O=C1NC(=O)C(c2ccccc2)(c2ccccc2)N1; 100
COc1ccc(N2C(=O)CC(c3noc4ccccc34)C2=O)cc1 (stereo unspecified); 300

Now let's try a different one.
Requested read-out: MTD at 4 h. Entry: O=C1CC(c2noc3ccccc23)C(=O)N1C1CCCCC1 (stereo unspecified)
300

---

Test system: Rattus norvegicus
experiment summary: Anticonvulsant activity in albino Wistar rat assessed as protection against maximal electroshock-induced seizures at 30 mg/kg, po at 4 hrs
Assay type: functional
endpoint: Activity
Mention the unit after the number when you answer.

Look over these answered cases.
O=C1CC(c2noc3ccccc23)C(=O)N1c1ccc(F)cc1 (centres undefined); 100%
O=C1CC(c2noc3ccccc23)C(=O)N1c1ccccc1 (centres undefined); 50%
COc1ccc(N2C(=O)CC(c3noc4ccccc34)C2=O)cc1 (centres undefined); 25%

// next item, Activity requested
Enter reported Activity observed with Rattus norvegicus for O=C1NC(=O)C(c2ccccc2)(c2ccccc2)N1 [PHENYTOIN]
75%

---

experiment summary: Neurotoxicity in po dosed albino Wistar rat at 4 hrs by rotorod test
Format: toxicity, organism-based
test parameters: in vivo
endpoint: TD50 at 4 h

Find the recorded TD50 at 4 h belonging to O=C1CC(c2noc3ccccc23)C(=O)N1C1CCCCC1 (stereo unspecified) and report it.
> 150 mg/kg

---

experiment summary: in vivo
test parameters: Wistar, rat, po
Description: Protective index, ratio of TD50 for neurotoxicity in po dosed albino Wistar rat to ED50 for anticonvulsant activity in po dosed albino Wistar rat assessed as protection against subcutaneous pentylenetetrazol-induced seizures at 2 hrs
endpoint: selectivity ratio at 2 h

# input compound: CCC1(C)CC(=O)NC1=O (stereo unspecified) [ETHOSUXIMIDE] ; wanted: its selectivity ratio at 2 h
> 3

---

experiment summary: Protective index, ratio of TD50 for neurotoxicity in po dosed albino Wistar rat to ED50 for anticonvulsant activity in po dosed albino Wistar rat assessed as protection against subcutaneous pentylenetetrazol-induced seizures at 4 hrs
Type: toxicity, organism-based
test parameters: in vivo, read-out: Ratio TD50/ED50
endpoint: selectivity ratio at 4 h

Could you share which selectivity ratio at 4 h value was measured for O=C1CC(c2noc3ccccc23)C(=O)N1C1CCCCC1 (stereo unspecified) ?
> 3.54

Just for reference, ChEMBL document CHEMBL3351514 is where these values come from.
